system: MDA-MB-231 multicell spheroids, viability; assay: Anticancer human tumor MDA-MB-231 cell line growth inhibition [PI3K]; conditions: second compound 1 µM; first compound 1 µM; active compounds read low;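 note: spheroids exposed to agents for seven days before reading; percent of vehicle control luminescence with DMSO treated spheroids as 100%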
viability, T/C values by entry
Just the number in %, nothing appended.

compound="CNC(=O)c1ccc(N2C(=S)N(c3ccc(C#N)c(C(F)(F)F)c3)C(=O)C2(C)C)cc1F + CC(Nc1ncnc2nc[nH]c12)c1cc2cccc(Cl)c2c(=O)n1-c1ccccc1" readout_label="viability, T/C" quantitative_readout=77.2
compound="C[C@@H](NC(=O)c1ncnc(N)c1Cl)c1ncc(C(=O)Nc2cc(C(F)(F)F)c(Cl)cn2)s1 + COc1c(OCCCN2CCOCC2)ccc2c3n(c(=NC(=O)c4cnc(N)nc4)nc12)CCN3" readout_label="viability, T/C" quantitative_readout=18.2
compound="CC(Cn1ccc(-c2ccc(C#N)c(Cl)c2)n1)NC(=O)c1cc(C(C)O)[nH]n1 (stereo not given) + CC(Nc1ncnc2nc[nH]c12)c1cc2cccc(Cl)c2c(=O)n1-c1ccccc1" readout_label="viability, T/C" quantitative_readout=79.5
compound="CC(C)NCC(C(=O)N1CCN(c2ncnc3c2C(C)CC3O)CC1)c1ccc(Cl)cc1 (stereo not given) + CC(Nc1ccc2c(c1)OCCn1cc(N3C(=O)OCC3C(F)F)nc1-2)C(N)=O" readout_label="viability, T/C" quantitative_readout=52.9

Continue with the compound presented below.
Input: Please give the measured viability, T/C for this compound: C[C@@H](NC(=O)c1ncnc(N)c1Cl)c1ncc(C(=O)Nc2cc(C(F)(F)F)c(Cl)cn2)s1 + CC(Nc1ccc2c(c1)OCCn1cc(N3C(=O)OCC3C(F)F)nc1-2)C(N)=O
Output: 44.8

###

system: MDA-MB-231 multicell spheroids, viability; test: Anticancer human tumor MDA-MB-231 cell line growth inhibition [PI3K]; conditions: second compound 0.316 µM; first compound 0.0949 µM; active compounds read low;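 note: spheroids exposed to agents for seven days before reading; percent of vehicle control luminescence with DMSO treated spheroids as 100%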
Readout Label: viability, T/C

Solved entries (count: 3):
compound="Cn1cnc2c(F)c(Nc3ccc(Br)cc3Cl)c(C(=O)NOCCO)cc21 + CC(Nc1ncnc2nc[nH]c12)c1cc2cccc(Cl)c2c(=O)n1-c1ccccc1" readout_label="viability, T/C" result=42.3%
compound="Cn1cnc2c(F)c(Nc3ccc(Br)cc3Cl)c(C(=O)NOCCO)cc21 + COc1c(OCCCN2CCOCC2)ccc2c3n(c(=NC(=O)c4cnc(N)nc4)nc12)CCN3" readout_label="viability, T/C" result=15.8%
compound="Cn1cnc2c(F)c(Nc3ccc(Br)cc3Cl)c(C(=O)NOCCO)cc21 + Cc1nc(NC(=O)N2CCCC2C(N)=O)sc1-c1ccnc(C(C)(C)C(F)(F)F)c1" readout_label="viability, T/C" result=48.1%

Input: For Cn1cnc2c(F)c(Nc3ccc(Br)cc3Cl)c(C(=O)NOCCO)cc21 + CC(Nc1ccc2c(c1)OCCn1cc(N3C(=O)OCC3C(F)F)nc1-2)C(N)=O , what is its reported viability, T/C?
Output: 40.5%

###

tested on: MDA-MB-231 multicell spheroids, viability; experiment: Anticancer human tumor MDA-MB-231 cell line growth inhibition [PI3K]; settings: second compound 0.1 µM; first compound 3.16 µM; active compounds read low;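 note: spheroids exposed to agents for seven days before reading; percent of vehicle control luminescence with DMSO treated spheroids as 100%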
Readout Label: viability, T/C (%)
Answer with a number only, understood to be in %.

Input: Please provide the recorded viability, T/C for CC1(C)CCC(CN2CCN(c3ccc(C(=O)NS(=O)(=O)c4ccc(NCC5CCOCC5)c([N+](=O)[O-])c4)c(Oc4cnc5[nH]ccc5c4)c3)CC2)=C(c2ccc(Cl)cc2)C1 + CC(Nc1ncnc2nc[nH]c12)c1cc2cccc(Cl)c2c(=O)n1-c1ccccc1 , tested on MDA-MB-231 multicell spheroids, viability.
Output: 103

Input: Which viability, T/C is reported with MDA-MB-231 multicell spheroids, viability for this entry: Cn1nccc1Nc1nccc(-c2ccn(C(CO)c3ccc(Cl)c(F)c3)c(=O)c2)n1 (stereo not drawn) + COc1c(OCCCN2CCOCC2)ccc2c3n(c(=NC(=O)c4cnc(N)nc4)nc12)CCN3 ?
Output: 22.4

Input: Please provide the recorded viability, T/C for C[C@@H](NC(=O)c1ncnc(N)c1Cl)c1ncc(C(=O)Nc2cc(C(F)(F)F)c(Cl)cn2)s1 + COc1c(OCCCN2CCOCC2)ccc2c3n(c(=NC(=O)c4cnc(N)nc4)nc12)CCN3 , tested on MDA-MB-231 multicell spheroids, viability.
Output: 34.2
